EXPERIMENTAL_DETAILS: Phase 1/1b clinical trial: plasma pharmacokinetics of PF-07220060
Type: in vivo, human
STUDY_CONDITIONS: human, plasma, po, 400 mg BID, 400 mg BID oral + fulvestrant (Part 1C); C1D15 post multiple doses; geometric mean
Procedure: Oral PF-07220060 was administered with at least 8 oz (240 mL) of water on an empty stomach (except during the food effect evaluation on Day-7 in Part 1D). No food or liquids other than water was consumed for 2 hours before and 1 hour following each dose throughout the study for BID dosing. […] In the ongoing Phase 1/1b Study, as of Aug. […] Available plasma concentration-time data of PF-07220060 were analyzed using noncompartmental methods. […]

MOLECULE	Cmax
CC(C)n1c(C(C)(C)O)nc2c(F)cc(-c3nc(N[C@@H]4CCOC[C@H]4O)ncc3Cl)cc21 [PF-07220060]	1380 ng/mL

====

EXPERIMENTAL_DETAILS: Phase 1/1b clinical trial: plasma pharmacokinetics of PF-07220060
Assay type: in vivo, human
STUDY_CONDITIONS: human, plasma, po, 300 mg BID oral + letrozole (Part 1B); C1D15 post multiple doses; geometric mean

SMILES_ENTRY	Cmax (ng/mL)
CC(C)n1c(C(C)(C)O)nc2c(F)cc(-c3nc(N[C@@H]4CCOC[C@H]4O)ncc3Cl)cc21	1520

====

EXPERIMENTAL_DETAILS: Phase 1/1b clinical trial: plasma pharmacokinetics of PF-07220060
Type: in vivo, human
STUDY_CONDITIONS: human, plasma, po, 400 mg BID oral + letrozole (Part 1B); C1D15 post multiple doses; geometric mean

SMILES_ENTRY	OUTPUT_UNIT	Cmax
CC(C)n1c(C(C)(C)O)nc2c(F)cc(-c3nc(N[C@@H]4CCOC[C@H]4O)ncc3Cl)cc21	ng/mL	1420

====

EXPERIMENTAL_DETAILS: Phase 1/1b clinical trial: plasma pharmacokinetics of PF-07220060
Format: in vivo, human
STUDY_CONDITIONS: human, plasma, po, 300 mg, 300 mg BID oral monotherapy (Part 1A); C1D1 post first dose; geometric mean; read-out: AUC12
ATTRIBUTE_MEASURED: AUC (ng·h/mL)

COMPOUND	RECORDED_RESULT
CC(C)n1c(C(C)(C)O)nc2c(F)cc(-c3nc(N[C@@H]4CCOC[C@H]4O)ncc3Cl)cc21 [PF-07220060]	4560

====

EXPERIMENTAL_DETAILS: Phase 1/1b clinical trial: plasma pharmacokinetics of PF-07220060
Type: in vivo, human
STUDY_CONDITIONS: human, plasma, po, 400 mg BID oral + fulvestrant (Part 1C); C1D1 post first dose; geometric mean; read-out: AUC12

COMPOUND	AUC, ng·h/mL
CC(C)n1c(C(C)(C)O)nc2c(F)cc(-c3nc(N[C@@H]4CCOC[C@H]4O)ncc3Cl)cc21 [PF-07220060]	4840

====

EXPERIMENTAL_DETAILS: Phase 1/1b clinical trial: plasma pharmacokinetics of PF-07220060
Assay type: in vivo, human
STUDY_CONDITIONS: human, plasma, po, 400 mg BID oral + letrozole (Part 1B); C1D1 post first dose; median; read-out: Tmax

MOLECULE	OUTPUT_UNIT	Tmax
CC(C)n1c(C(C)(C)O)nc2c(F)cc(-c3nc(N[C@@H]4CCOC[C@H]4O)ncc3Cl)cc21 [PF-07220060]	h	2.2
